System: pERK in NCI-H358 cells
assay_notes: Cell-based pERK HTRF assay (pERK inhibition in H358 cells)
details: Homo sapiens, NCI-H358, 0.5 h, 30 min incubation
measurement_label: IC50

compound	IC50
C=CC(=O)N1CC[C@@H](N(C)c2nc(OC[C@@]34CCCN3C[C@H](F)C4)nc3c(F)c(-c4ccc(F)c5oc(N)c(C#N)c45)c(C(F)(F)F)cc23)[C@H]1C [Compound 90]	< 100 nM
C=CC(=O)N1CC[C@@H](N(C)c2nc(O[C@@H](C)[C@@H]3CC(=C(F)F)CN3C)nc3c(F)c(-c4ccc(F)c5sc(N)c(C#N)c45)c(C(F)(F)F)cc23)[C@H]1C [Compound 204]	100 to 1000 nM
C=CC(=O)N1CC[C@@H](N(CC)c2nc(OC[C@@H]3C[C@@H](OC)CN3C)nc3c(F)c(-c4ccc(F)c5sc(N)c(C#N)c45)c(Cl)cc23)[C@H]1C [Compound 73]	< 100 nM
C=CC(=O)N1CC[C@@H](N(C)c2nc(OC[C@H]3C[C@@H](OC)CN3C)nc3c(F)c(-c4ccc(F)c5sc(N)c(C#N)c45)c(C(F)(F)F)cc23)[C@H]1C (single isomer, unassigned) [Compound 173]	< 100 nM
C=CC(=O)N1CC[C@@H](N(CC)c2nc(OC[C@@]34CCCN3C[C@H](OC)C4)nc3cc(-c4ccc(F)c5sc(N)c(C#N)c45)c(F)cc23)[C@H]1C [Compound 149]	< 100 nM
C=CC(=O)N1CC[C@@H](N(C)c2nc(OC[C@@]34CCCN3C[C@H](F)C4)nc3cc(-c4ccc(F)c5sc(N)c(C#N)c45)c(C#N)cc23)[C@@H]1C [Compound 27]	< 100 nM
C=CC(=O)N1CC[C@@H](N(C)c2nc(OC[C@@H]3CCCN3CC)nc3c(F)c(-c4ccc(F)c5sc(N)c(C#N)c45)c(C(F)(F)F)cc23)[C@H]1C [Compound 88]	< 100 nM
C=CC(=O)N1CCC(N(C)c2nc(OC[C@@]34CCCN3C[C@H](F)C4)nc3c(F)c(-c4nc(N)cc(C)c4C(F)(F)F)c(Cl)cc23)[C@H]1C (stereo partly shown) [Compound 10]	< 100 nM

q: Please look up its IC50: C=CC(=O)N1CC[C@@H](N(C)c2nc(OC[C@@H]3C[C@@H](F)CN3C)nc3c(F)c(-c4nc(N)cc(C)c4C(F)(F)F)c(C(F)(F)F)cc23)[C@H]1C [Compound 145]
a: 100 to 1000 nM

q: Please look up its IC50: C=CC(=O)N1CC[C@@H](N(C)c2nc(O[C@@H](C)[C@@H]3C[C@@H](OC)CN3C)nc3c(F)c(-c4ccc(F)c5sc(N)c(C#N)c45)c(Cl)cc23)[C@H]1C [Compound 194]
a: < 100 nM

====

System: pERK in NCI-H358 cells
assay_notes: Cell-based pERK HTRF assay (pERK inhibition in H358 cells)
details: Homo sapiens, NCI-H358, 0.5 h, 30 min incubation
pIC50: −log10 of the molar value.
measurement_label: pIC50

The cases that follow already have their pIC50 on record.
compound	pIC50
C=CC(=O)N1C[C@H](N(C)c2nc(OC[C@@]34CCCN3C[C@H](F)C4)nc3c(F)c(-c4ccc(F)c5sc(N)c(C#N)c45)c(C(F)(F)F)cc23)C[C@@H]1C [Compound 108]	> 7.00
C=CC(=O)N1CC[C@@H](N(C)c2nc(OC[C@@]34CCCN3C[C@H](F)C4)nc3cc(-c4ccc(F)c5sc(N)c(C#N)c45)c(F)cc23)[C@@H]1CC [Compound 22]	> 7.00
C=CC(=O)N1CC[C@@H](N(CC)c2nc(OC[C@@]34CCCN3C[C@H](OC)C4)nc3c(F)c(-c4ccc(F)c5sc(N)c(C#N)c45)c(C(F)(F)F)cc23)[C@H]1C [Compound 150]	> 7.00

q: pERK in NCI-H358 cells / pIC50 / C=CC(=O)N1CC[C@@H](N(C)c2nc(OC[C@@H]3C(=C(F)F)CCN3C)nc3c(F)c(-c4ccc(F)c5sc(N)c(C#N)c45)c(C(F)(F)F)cc23)[C@H]1C [Compound 199] : value?
a: > 7.00

q: pERK in NCI-H358 cells / pIC50 / C=CC(=O)N1CC[C@@H](N(CC)c2nc(OC[C@@]34CCCN3C[C@H](F)C4)nc3c(F)c(-c4ccc(F)c5sc(N)c(C#N)c45)c(Cl)cc23)[C@H]1CC [Compound 20] : value?
a: > 7.00

====

Entries and their IC50
test_system: Avi-KRAS G12C (1-169) GppNHp/RAF1 RBD-3×FLAG (52-151) (Homo sapiens, UniProt P01116, G12C)
Construct: Avi-KRAS G12C (1-169) GppNHp; Avi (N)
Sequence (P01116 1-169 isoform P01116-2 G12C limits assumed): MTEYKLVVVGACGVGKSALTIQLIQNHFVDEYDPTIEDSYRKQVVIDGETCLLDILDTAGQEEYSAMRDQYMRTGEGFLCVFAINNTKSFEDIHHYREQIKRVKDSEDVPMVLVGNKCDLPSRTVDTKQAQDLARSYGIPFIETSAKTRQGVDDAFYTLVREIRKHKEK
assay_notes: Raf1 RBD-KRAS G12C-GppNHp disruption assay (protein:protein interaction HTRF)
Type: biochemical

The cases that follow already have their IC50 on record.
molecule	test_system	IC50
C=CC(=O)N1CC[C@@H](N(C)c2nc(OC[C@H]3C[C@@H](OC)CN3C)nc3c(F)c(-c4ccc(F)c5sc(N)c(C#N)c45)c(C(F)(F)F)cc23)[C@H]1C (single isomer, unassigned) [Compound 175]	Avi-KRAS G12C (1-169) GppNHp/RAF1 RBD-3×FLAG (52-151) (Homo sapiens, UniProt P01116, G12C)	5000 to 20000 nM
C=CC(=O)N1CC[C@@H](N(C)c2nc(OC[C@@]34CCCN3C[C@H](F)C4)nc3cc(-c4ccc(F)c5sc(N)c(C#N)c45)c(F)cc23)[C@@H]1CC [Compound 22]	Avi-KRAS G12C (1-169) GppNHp/RAF1 RBD-3×FLAG (52-151) (Homo sapiens, UniProt P01116, G12C)	500 to 5000 nM
C=CC(=O)N1CC[C@@H](N(C)c2nc(OC[C@@]34CCCN3C[C@H](OC)C4)nc3c(F)c(-c4ccc(F)c5sc(N)c(C#N)c45)c(C(F)(F)F)cc23)[C@H]1C [Compound 151]	Avi-KRAS G12C (1-169) GppNHp/RAF1 RBD-3×FLAG (52-151) (Homo sapiens, UniProt P01116, G12C)	< 500 nM

q: Avi-KRAS G12C (1-169) GppNHp/RAF1 RBD-3×FLAG (52-151) (Homo sapiens, UniProt P01116, G12C) / IC50 / C=CC(=O)N1CC[C@@H](N(C)c2nc(OC[C@@]34CCCN3C[C@H](F)C4)nc3c(F)c(-c4ccc(F)c5sc(N)c(C#N)c45)c(Cl)cc23)[C@@H]1C (atropisomer, axis not shown) [Compound 69] : value?
a: 500 to 5000 nM

q: Avi-KRAS G12C (1-169) GppNHp/RAF1 RBD-3×FLAG (52-151) (Homo sapiens, UniProt P01116, G12C) / IC50 / C=CC(=O)N1CC[C@@H](N(C)c2nc(OC[C@@H]3C[C@@H](OC)CN3C)nc3c(F)c(-c4ccc(F)c5sc(N)c(C#N)c45)c(Cl)cc23)[C@H]1C [Compound 63] : value?
a: < 500 nM

q: Avi-KRAS G12C (1-169) GppNHp/RAF1 RBD-3×FLAG (52-151) (Homo sapiens, UniProt P01116, G12C) / IC50 / C=CC(=O)N1CC[C@@H](N(CC)c2nc(OC[C@@H]3C[C@@H](OC)CN3C)nc3c(F)c(-c4ccc(F)c5sc(N)c(C#N)c45)c(C(F)(F)F)cc23)[C@H]1C [Compound 45] : value?
a: < 500 nM

q: Avi-KRAS G12C (1-169) GppNHp/RAF1 RBD-3×FLAG (52-151) (Homo sapiens, UniProt P01116, G12C) / IC50 / C=CC(=O)N1CC[C@@H](N(C)c2nc(OC[C@@H]3CCCN3C)nc3c(F)c(-c4ccc(F)c5sc(N)c(C#N)c45)c(Cl)cc23)[C@H]1C (atropisomer, axis not shown) [Compound 118] : value?
a: < 500 nM

q: Avi-KRAS G12C (1-169) GppNHp/RAF1 RBD-3×FLAG (52-151) (Homo sapiens, UniProt P01116, G12C) / IC50 / C=CC(=O)N1CC[C@@H](N(CC)c2nc(OC[C@@]34CCCN3C[C@H](F)C4)nc3c(F)c(-c4ccc(F)c5sc(N)c(C#N)c45)c(Cl)cc23)[C@H]1CC [Compound 20] : value?
a: < 500 nM

q: Avi-KRAS G12C (1-169) GppNHp/RAF1 RBD-3×FLAG (52-151) (Homo sapiens, UniProt P01116, G12C) / IC50 / C=CC(=O)N1CC[C@@H](N(C)c2nc(OC[C@@]34CCCN3C[C@H](F)C4)nc3c(F)c(-c4nc(N)cc(C)c4C(F)(F)F)c(C(F)(F)F)cc23)[C@@H]1C [Compound 91] : value?
a: < 500 nM

q: Avi-KRAS G12C (1-169) GppNHp/RAF1 RBD-3×FLAG (52-151) (Homo sapiens, UniProt P01116, G12C) / IC50 / C=CC(=O)N1CC[C@@H](N(C)c2nc(OC[C@@]34CCCN3C[C@H](F)C4)nc3c(F)c(-c4ccc(F)c5oc(N)c(C#N)c45)c(C(F)(F)F)cc23)[C@H]1C [Compound 90] : value?
a: < 500 nM
